# seed-corrected z-score per record follows
# assay.remarks: Identification of proteins required for the processing of the EWS-FLI1 nascent transcript;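 also: robust z of luciferase light less the median z of siRNAs with the same seed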
# condition.info: TC32 Ewing sarcoma NR0B1-luc vs CMV-luc (EWS-FLI1 target promoter against control promoter), 48 h; screened at 20 nM (by protocol)
Over roughly 59,000 sequences, the read-out has its median near -0.00055; the lowest 2% begin near -2. This excerpt belongs to a sample that is enriched for the lowest values.
Give the figure by itself; no unit, no explanation.

Examples from the recorded data:
UAGAAUAAAAUACCGAAUG against SNRPD1 = -1.88
UGAUCUGCUAGGCAAGAGG against FASTKD1 = -0.665

Query: Consider the sequence shown here: AAAUUUCACAGGUAAUAUG against OR13D1 What is its recorded seed-corrected z-score?
Response: -0.485

The reported measurements were obtained from PubChem BioAssay AID1159506.
